Data origin, for the record: patent US11123340B2

procedure-summary: Inhibitor permeability across MDCK cell monolayers (LC/MS)
Type: in vitro ADME, canine
measurement-parameters: dog; MDCK monolayers on porous filters, 20 μM; read-out: transepithelial permeability coefficient
measured-endpoint: Papp B→A at 20 μM (×10⁻⁶ cm/s)
Kindly provide the numeric value in ×10⁻⁶ cm/s only, without the unit symbol.

Sure, the documented Papp B→A at 20 μM for COc1ccc(C)cc1S(=O)(=O)Nc1ccc(Cl)c(N2CCCS2(=O)=O)c1 is 11

* * *

target-under-test: rat UT-A1 (Rattus norvegicus)
Construct: expressed in transfected cells; host or cells: MDCK cells stably co-expressing rat UT-A1, human AQP1 and YFP-H148Q/V163S
procedure-summary: UT-A1 inhibition, fluorescence plate reader assay in MDCK cells expressing UT-A1, AQP1 and YFP-H148Q/V163S
Type: cell-based
measured-endpoint: log10(IC50) (log10 of the value in µM)
Log scale reminder: IC50 in µM, then log10 taken.

See these solved cases before continuing.
COc1ccc(F)cc1S(=O)(=O)Nc1cccc(N2CCCS2(=O)=O)c1 [UTA1inh-F04]	0.70
COc1cc(C)c(C)cc1S(=O)(=O)Nc1cc(N2CCCS2(=O)=O)ccc1C [UTA1inh-F08]	1.48
COc1ccc(F)cc1S(=O)(=O)Nc1cc(N2CCCS2(=O)=O)ccc1C [UTA1inh-F07]	1.18
COc1ccc(C)cc1S(=O)(=O)Nc1ccc(Cl)c(N2CCCS2(=O)=O)c1 [UTA1inh-F11]	0.00
COc1cc(C)c(C)cc1S(=O)(=O)Nc1cccc(N2CCCS2(=O)=O)c1 [UTA1inh-F05]	0.48
Cc1cc(C)c(S(=O)(=O)Nc2cccc(N3CCCS3(=O)=O)c2)cc1C [UTA1inh-F03]	0.48

Sure, the documented log10(IC50) for COc1ccc(N2CCCS2(=O)=O)cc1NS(=O)(=O)c1cc(C)ccc1C [UTA1inh-F10] is 0.70

Sure, the documented log10(IC50) for Cc1ccc(C)c(S(=O)(=O)Nc2cccc(N3CCCS3(=O)=O)c2)c1 [UTA1inh-F02] is 1.18

Sure, the documented log10(IC50) for Cc1ccc(C)c(S(=O)(=O)Nc2cc(N3CCCS3(=O)=O)ccc2C)c1 [UTA1inh-F06] is 1.00

* * *

target-under-test: rat UT-B (Rattus norvegicus, UniProt P97689)
Construct: endogenous in cells; host or cells: rat erythrocytes (whole rat blood)
procedure-summary: UT-B inhibition, erythrocyte lysis assay
Format: cell-based
measurement-parameters: rat erythrocytes
measured-endpoint: IC50 (µM)
Kindly provide the numeric value in µM only, without the unit symbol.

Sure, the documented IC50 for COc1cc(C)c(C)cc1S(=O)(=O)Nc1cccc(N2CCCS2(=O)=O)c1 is 20

Sure, the documented IC50 for COc1ccc(N2CCCS2(=O)=O)cc1NS(=O)(=O)c1cc(C)ccc1OC is 8

Sure, the documented IC50 for COc1ccc(C)cc1S(=O)(=O)Nc1ccc(Cl)c(N2CCCS2(=O)=O)c1 is 10

Sure, the documented IC50 for COc1ccc(C)cc1S(=O)(=O)Nc1cccc(N2CCCS2(=O)=O)c1 is 6

Sure, the documented IC50 for Cc1cc(C)c(S(=O)(=O)Nc2cccc(N3CCCS3(=O)=O)c2)cc1C is 15

Sure, the documented IC50 for COc1cc(C)c(C)cc1S(=O)(=O)Nc1cc(N2CCCS2(=O)=O)ccc1C is 20
